system: L1210 leukemia ip in BDF1 mice, survival T/C; experiment: NCI In Vivo Anticancer Drug Screen. Data for tumor model L1210 Leukemia (intraperitoneal) in B6D2F1 (BDF1) mice; details: endpoint: mean survival time; dose: 100.0 mg/kg/injection; schedule: Q01DX009 (ip); vehicle: saline with Tween-80; higher = longer survival
Inconclusive results and toxic doses are left out.
PARAMETER: T/C

Worked set:
COc1ccc(OC)c(/C=N/NC(=O)C[N+](C)(C)C)c1: 86 % of control
COc1ccc(OC)c(C2=CCCCCC2)c1OC: 95 % of control
C(=N\n1cnnc1)/c1ccccc1/C=N/n1cnnc1: 116 % of control

// input: 3 compounds below; output: T/C for each
1. CC(C)CN(C)N=Nc1ccccc1C(=O)NN
2. CCCCC(CC)C1NCCO1 (stereo not drawn)
3. COc1ccc(C(O)SP(=S)(OC)c2ccc(OC)cc2)cc1 (stereo not drawn)

["98 % of control", "100 % of control", "100 % of control"]

// input: 5 compounds below; output: T/C for each
1. CNC(=O)Nc1ccc(S(=O)(=O)Nc2nc(C)cc(C)n2)cc1
2. CC(Br)C(=O)Nc1ccccc1 (stereo not drawn)
3. CN(C)c1ccc(/C=C2/CCCC/C2=N/O)cc1
4. CC(C)(CBr)COS(=O)(=O)c1ccc(Br)cc1
5. Nc1cccc2c1C(=O)c1ccccc1-2

1. 96 % of control
2. 93 % of control
3. 98 % of control
4. 91 % of control
5. 97 % of control

// input: 2 compounds below; output: T/C for each
1. N#Cc1ccc(C#N)cc1
2. CC(C)C(=O)c1ccc([N+](=O)[O-])o1

97 % of control
94 % of control

Values compiled from PubChem BioAssay AID248.
